# Measurement description: Tmax in fasting human plasma unbound fraction at 250 mg, po
# Assay type: ADME, organism-based
Measurement label: Tmax

• CC[C@H]1OC(=O)[C@H](C)[C@@H](O[C@H]2C[C@@](C)(OC)[C@@H](O)[C@H](C)O2)[C@H](C)[C@@H](O[C@@H]2O[C@H](C)C[C@H](N(C)C)[C@H]2O)[C@](C)(OC)C[C@@H](C)C(=O)[C@H](C)[C@@H](O)[C@]1(C)O [CLARITHROMYCIN] = 2.6 h

====

# Measurement description: Cmax in fasting human interstitial-space fluid of subcutaneous adipose tissue at 250 mg, po
# Type: ADME, organism-based
Measurement label: Cmax (ng/mL)

- CC[C@H]1OC(=O)[C@H](C)[C@@H](O[C@H]2C[C@@](C)(OC)[C@@H](O)[C@H](C)O2)[C@H](C)[C@@H](O[C@@H]2O[C@H](C)C[C@H](N(C)C)[C@H]2O)[C@](C)(OC)C[C@@H](C)C(=O)[C@H](C)[C@@H](O)[C@]1(C)O [CLARITHROMYCIN]: 70
